- System: BRAF
- RUN_PARAMETERS: concentration: 1 μM, replicates: in singlicate; n = 1;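 note: KINOMEscan kinase panel screen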
MEASUREMENT_TYPE: %Inh (%)
Enter your answer as a number in %; do not include the unit.

Below, each entry is followed by its recorded %Inh result.
CC(C)Oc1ccc2c(-c3ccnc(Nc4ccc(N5CCN(C)CC5)cc4)n3)cnn2n1 [GW696155] yielded %Inh of 43

CN(C(=O)c1ccc(-c2cc(-c3c[nH]nc3-c3ccccn3)ccn2)cc1)C1CCOCC1 [GW810083] yielded %Inh of 0

O=C1NC(=O)C(N2CCc3ccccc32)=C1c1cccc(Cl)c1 [SB-408010] yielded %Inh of 3

O=C(c1ccc(-c2cc(-c3c[nH]nc3-c3ccccn3)ccn2)cc1)N1CCOCC1 [GW812171] yielded %Inh of 32

O=C(Nc1cccc(-c2nn3ncccc3c2-c2ccnc(Nc3cccc(C(F)(F)F)c3)n2)c1)c1c(F)cccc1F [GSK299495] yielded %Inh of 69

NS(=O)(=O)c1cccc(-c2ccc3ncc(N4CCOCC4)nc3c2)c1 [GSK1535721] yielded %Inh of 0

***
NCCNS(=O)(=O)c1ccc(-c2ccnc3[nH]ccc23)cc1 [GSK977617] yielded %Inh of 0

CN1c2ccc(CNc3ccc(F)cc3)cc2-c2c(cnn2C)S1(=O)=O yielded %Inh of 36

----------
- Tested on: DDR2
- RUN_PARAMETERS: concentration: 1 μM, replicates: in singlicate; n = 1
Catalogue of %Inh values
Enter your answer as a number in %; do not include the unit.

Below, each entry is followed by its recorded %Inh result.
// returns %Inh for Cc1cn2c(=O)cc(N3CCOCC3)nc2n1Cc1cccc(Cl)c1Cl [GSK2334006] with DDR2; value = 14

// returns %Inh for COC(=O)Nc1nc2cc(Oc3ccc(NC(=O)Nc4cc(F)ccc4F)cc3)ccc2[nH]1.Cl [GW701424] with DDR2; value = 99.2

// returns %Inh for O=C(NCCNc1ccnc(Nc2ccc(F)cc2)n1)c1cc2ccccc2s1 [GSK1379874] with DDR2; value = 1

// returns %Inh for Fc1ccc(-c2ncn(CCCN3CCOCC3)c2-c2cccnc2)cc1 [SB-211743] with DDR2; value = 24

// returns %Inh for N#Cc1ccc(-c2cc(-c3c[nH]nc3-c3ccccn3)ccn2)cc1 [GW693028] with DDR2; value = 1

// returns %Inh for O=C1NC(=O)C(N2CCc3ccccc32)=C1c1cccc(Cl)c1 [SB-408010] with DDR2; value = 0

// returns %Inh for Fc1ccc(-c2ncn(CCCN3CCOCC3)c2-c2ccccn2)cc1 [SB-211742] with DDR2; value = 27

// returns %Inh for NS(=O)(=O)CCc1cccc(Nc2nccc(-c3c(-c4cccc(NC(=O)c5c(F)cccc5F)c4)nn4ccccc34)n2)c1 [GSK336735] with DDR2; value = 94.9

***
// returns %Inh for Cc1cccc(-c2nc(-c3ccc(S(C)(=O)=O)cc3)sc2-c2ccncc2)c1 with DDR2; value = 9

----------
- Tested on: STK36
- RUN_PARAMETERS: concentration: 1 μM, replicates: in singlicate; n = 1
Catalogue of %Inh values
Enter your answer as a number in %; do not include the unit.

Below, each entry is followed by its recorded %Inh result.
Fc1ccc(-c2nn3c(OCC(F)(F)F)cccc3c2-c2ccncc2)cc1 yielded %Inh of 0

COc1ccc(S(=O)(=O)NC2CCN(c3cc(C)nc(Nc4cccc(C#N)c4)n3)CC2)cc1.O=C(O)C(F)(F)F yielded %Inh of 0

Nc1nccc(-c2c(-c3ccc(F)cc3)ncn2C2CCN(CC(F)(F)F)CC2)n1 yielded %Inh of 26

Cc1ccc(C(=O)NCC(N)=O)cc1-n1c(C)cc(OCc2ccc(F)cc2F)c(Br)c1=O yielded %Inh of 15

Cn1ccc2ncnc(Oc3ccc(NC(=O)Nc4ccncc4)c(Cl)c3)c21 yielded %Inh of 5

COc1ccc(CNC(=O)NC2CCN(c3ccnc(Nc4ccc(OC)cc4)n3)C2)cc1 (stereo not drawn) yielded %Inh of 0

Cc1cn2c(=O)cc(N3CCOCC3)nc2n1Cc1cccc(Cl)c1Cl yielded %Inh of 0

Cn1cc(-c2ccc3c(c2)CCN3C(=O)Cc2ccccc2Cl)c2c(N)ncnc21 yielded %Inh of 100

CN1c2ccc(CNc3ccc(F)cc3)cc2-c2c(cnn2C)S1(=O)=O yielded %Inh of 0

COc1ccc(Nc2nccc(N3CCC(NC(=O)Nc4cc(C)ccc4C)C3)n2)cc1 (stereo not drawn) yielded %Inh of 100

***
Cc1nnc(-c2ccc3occ(-c4ccc(C(C)O)cc4)c3c2)o1 (stereo not drawn) yielded %Inh of 19

CNc1ncnc2[nH]ncc12 yielded %Inh of 0

CCn1cnc2c(N)ncnc21 yielded %Inh of 5

NCCNS(=O)(=O)c1ccc(-c2ccnc3[nH]ccc23)cc1 yielded %Inh of 0

Cc1nnc(-c2ccc(C)c(-c3ccc(C(=O)Nc4ccc(NS(C)(=O)=O)cc4)cc3)c2)o1 yielded %Inh of 24

CCc1nc(-c2cccc(C)c2)c(-c2ccnc(NCc3ccccc3)c2)s1 yielded %Inh of 0

N#Cc1ccc(-c2cc(-c3c[nH]nc3-c3ccccn3)ccn2)cc1 yielded %Inh of 0

COC(=O)Nc1nc2cc(Oc3ccc(NC(=O)Nc4cc(F)ccc4F)cc3)ccc2[nH]1.Cl yielded %Inh of 0
